# ASSAYED SYSTEM: T1, human PVRIG-his (AcroBiosystems, Cat NO. PVG-H52H4) (human, UniProt Q6DKI7 41-171, limits assumed)
# T1 construct: also called human PVRIG protein
# T1 sequence (looked up): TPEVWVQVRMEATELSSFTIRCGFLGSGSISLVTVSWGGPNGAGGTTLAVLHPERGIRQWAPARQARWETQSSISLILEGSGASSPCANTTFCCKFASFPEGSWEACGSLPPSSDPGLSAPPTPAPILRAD
# ASSAY REMARKS: ELISA, antigen coated
VALUE TYPE: % relative activity parental antibody/tested antibody (%)
The response must be a number in % with no trailing unit.

input: What value of measured % relative activity parental antibody/tested antibody is listed for PVRIG-A118-H5 (Fc fusion, humanized variant of PVRIG-A118; also called A118.VH5; not shown: constant part not restated for the humanized forms; parents are VHH-hinge-CH2-CH3 of human IgG1; detected by anti-human) EVQLVESGGGLVQPGGSLRLSCAASETYFDLYVMGWYRQAPGKDRELVATITYTGSIKYVDSVKGRFTISRGDAKNSVYLQMNSLRAEDTAVYYCNADPSGLGRKVYWGQGTMVTVSS ?
output: 104

input: What value of measured % relative activity parental antibody/tested antibody is listed for PVRIG-A50-H1c (Fc fusion, humanized variant of PVRIG-A50; also called A50.VH1c; not shown: constant part not restated for the humanized forms; parents are VHH-hinge-CH2-CH3 of human IgG1; detected by anti-human) EVQLVESGGGLVQPGGSLRLSCAASGFTFSYYDMSWVRQAPGKGLEWVSTINSDGGRTSYVDSVKGRFTISRDNSKNTLYLQMNSLRAEDTAVYYCVEGDPHNFGLENLALRDFGSWGQGTMVTVSS ?
output: 87.3
